- Tested on: Caco-2
- measurement_notes: cell viability relative to DMSO; higher = less toxic
- cond: 72 h; 10 nM
metric: cell viability (%)
Write the answer as a number in %, unit excluded.

# lookup: cell viability of O=C1NCN(c2ccccc2)C12CCN(CCCC(c1ccc(F)cc1)c1ccc(F)cc1)CC2 [fluspirilene]
106

# lookup: cell viability of CC#CCn1c(N2CCC[C@@H](N)C2)nc2c1c(=O)n(Cc1nc(C)c3ccccc3n1)c(=O)n2C [linagliptin]
105

# lookup: cell viability of Cc1c(-c2ccccc2)oc2c(C(=O)OCCN3CCCCC3)cccc2c1=O [flavoxate]
91.5

# lookup: cell viability of CC(=O)N[C@H](Cc1ccc2ccccc2c1)C(=O)N[C@H](Cc1ccc(Cl)cc1)C(=O)N[C@H](Cc1cccnc1)C(=O)N[C@@H](CO)C(=O)N[C@@H](Cc1ccc(O)cc1)C(=O)N[C@H](CCCNC(N)=O)C(=O)N[C@@H](CC(C)C)C(=O)N[C@@H](CCCNC(=N)N)C(=O)N1CCC[C@H]1C(=O)N[C@H](C)C(N)=O [cetrorelix]
95.5

# lookup: cell viability of N[C@@H](CSC(c1ccccc1)(c1ccccc1)c1ccccc1)C(=O)O [S-trityl-L-cysteine]
100

# lookup: cell viability of COc1ccc(NS(=O)(=O)c2ccc(N)cc2)nn1 [sulfamethoxypyridazine]
99.8

# lookup: cell viability of Nc1nc(N)c2nc(-c3cccc(O)c3)cnc2n1
105

# lookup: cell viability of CO[C@H]1/C=C/O[C@@]2(C)Oc3c(C)c(O)c4c(O)c(c(/C=N/N=C/N5CCCCC5)c(O)c4c3C2=O)NC(=O)/C(C)=C\C=C\[C@H](C)[C@H](O)[C@@H](C)[C@@H](O)[C@@H](C)[C@H](OC(C)=O)[C@@H]1C
96.2

# lookup: cell viability of COc1ccc(CCC(=O)c2c(O)cc(O[C@@H]3O[C@H](CO)[C@@H](O)[C@H](O)[C@H]3O[C@@H]3O[C@@H](C)[C@H](O)[C@@H](O)[C@H]3O)cc2O)cc1O [Neohesperidin dihydrochalcone (Nhdc)]
104

# lookup: cell viability of COC(=O)CC[C@@H]1N=C(c2ccccn2)c2cc(Br)ccc2-n2c(C)cnc21 [remimazolam]
101

# lookup: cell viability of c1coc(-c2nnc3sc(C4CCCCC4)nn23)c1 [cardionogen-1]
94.7

# lookup: cell viability of COc1nccc(-c2c(-c3ccc(F)cc3)ncn2C2CCNCC2)n1
95.7

# lookup: cell viability of O=C1O[C@H]([C@@H](O)CO)C(O)=C1O [ASCORBIC ACID]
95.9

# lookup: cell viability of Cc1ccccc1NC(=N)Nc1ccccc1C [ditolylguanidine]
100

# lookup: cell viability of CCCC1(CCC)CCC2(CCN(CCCN(CC)CC)C2)CC1 [atiprimod]
94.7

###

Exercise: for every item that follows, state its recorded cell viability.
- System: U2OS
- measurement_notes: cell viability relative to DMSO; higher = less toxic
- cond: 72 h; 1 nM
Write the answer as a number in %, unit excluded.

# lookup: cell viability of OCCn1cc(-c2cnc3nnn(Cc4ccc5ncccc5c4)c3n2)cn1
105

# lookup: cell viability of Cc1ccc(N2CCN(CC[C@H]3NC(=O)c4ccccc43)CC2)cc1C
96.7

# lookup: cell viability of N[C@@H](CSC(c1ccccc1)(c1ccccc1)c1ccccc1)C(=O)O
101

# lookup: cell viability of Cc1ccc(NC2=CC(=O)c3sc(C)nc3C2=O)cc1
102

# lookup: cell viability of CCCCCCCCc1ccc(CCC(N)(CO)CO)cc1
102

# lookup: cell viability of COc1cc(NS(=O)(=O)c2ccc(N)cc2)ncn1
101

# lookup: cell viability of Nc1ccccc1NC(=O)c1ccc(CNc2nccc(-c3cccnc3)n2)cc1
98.4

# lookup: cell viability of O=C1NCN(c2ccccc2)C12CCN(CCCC(c1ccc(F)cc1)c1ccc(F)cc1)CC2
98.4

# lookup: cell viability of CS(=O)(=O)n1cc2c(n1)CN([C@H]1CO[C@H](c3cc(F)ccc3F)[C@@H](N)C1)C2
97.8

###

- Test system: Caco-2
- measurement_notes: relative viability EC50 (midpoint between 100% and the lowest measured viability); higher = less toxic
- cond: 72 h
metric: relative viability EC50

# lookup: relative viability EC50 of CO[C@H](C(=O)[C@@H](O)[C@@H](C)O)[C@@H]1Cc2cc3cc(O[C@H]4C[C@@H](O[C@H]5C[C@@H](O)[C@H](O)[C@@H](C)O5)[C@@H](O)[C@@H](C)O4)c(C)c(O)c3c(O)c2C(=O)[C@H]1O[C@H]1C[C@@H](O[C@H]2C[C@@H](O[C@H]3C[C@](C)(O)[C@H](O)[C@@H](C)O3)[C@H](O)[C@@H](C)O2)[C@H](O)[C@@H](C)O1 [plicamycin]
0.0245 µM

# lookup: relative viability EC50 of COc1ccc(CCC(=O)c2c(O)cc(O[C@@H]3O[C@H](CO)[C@@H](O)[C@H](O)[C@H]3O[C@@H]3O[C@@H](C)[C@H](O)[C@@H](O)[C@H]3O)cc2O)cc1O [Neohesperidin dihydrochalcone (Nhdc)]
> 10 µM

# lookup: relative viability EC50 of O=[N+]([O-])c1cncn1CCN1CCOCC1 [nimorazole]
> 10 µM

###

- Tested on: Caco-2
- measurement_notes: drug sensitivity score (DSS) for viability; higher = more toxic; extreme values may be limits of the assay
- cond: 72 h
metric: drug sensitivity score
# respond with the number and nothing more

For Caco-2, provide drug sensitivity score of COc1cc([C@@H]2c3cc4c(cc3[C@@H](O[C@@H]3O[C@@H]5CO[C@@H](C)O[C@H]5[C@H](O)[C@H]3O)[C@H]3COC(=O)[C@H]23)OCO4)cc(OC)c1O [etoposide] please.
2.7

For Caco-2, provide drug sensitivity score of COCC[n+]1c2c(n(Cc3cnccn3)c1C)C(=O)c1ccccc1C2=O [YM-155] please.
40.1

For Caco-2, provide drug sensitivity score of CC(C)(C)c1ccc(S(=O)(=O)Nc2ccc(Cl)cc2C(=O)c2cc[n+]([O-])cc2)cc1 [vercirnon] please.
0

For Caco-2, provide drug sensitivity score of CCN1CCC[C@H]1CNC(=O)c1c(O)c(Cl)cc(Cl)c1OC [raclopride] please.
0

###

- System: Caco-2
- measurement_notes: cell viability relative to DMSO; higher = less toxic
- cond: 72 h; 10 nM
The label YES is reserved for cell viability strictly under 90%; NO covers values equal to or above it.

Criterion: cell viability strictly below 90%. Is it met by N[C@H]1CC[C@H](N[C@@H]2C[C@H]2c2ccccc2)CC1 [ORY-1001] ?
NO

Criterion: cell viability strictly below 90%. Is it met by CC(C)(C)NC[C@H](O)COc1cccc2c1CCCC2=O [levobunolol] ?
NO

Criterion: cell viability strictly below 90%. Is it met by O=C(O)CCCCC(=O)O [adipic-acid] ?
YES

Criterion: cell viability strictly below 90%. Is it met by C=C(C)[C@@H]1CC[C@]2(CO)CC[C@]3(C)[C@H](CC[C@@H]4[C@@]5(C)CC[C@H](O)C(C)(C)[C@@H]5CC[C@]43C)[C@@H]12 [NSC-4644] ?
YES

Criterion: cell viability strictly below 90%. Is it met by Cc1c(Cl)cccc1S(=O)(=O)Nc1nc(NCCc2ccccc2)nc2c1CN(Cc1ccccc1)CC2 [CaMKII-IN-1] ?
NO

Criterion: cell viability strictly below 90%. Is it met by CC(C)(C)c1ccc(S(=O)(=O)Nc2ccc(Cl)cc2C(=O)c2cc[n+]([O-])cc2)cc1 [vercirnon] ?
NO

###

Exercise: for every item that follows, state its recorded drug sensitivity score.
- System: U2OS
- measurement_notes: drug sensitivity score (DSS) for viability; higher = more toxic; extreme values may be limits of the assay
- cond: 72 h

# lookup: drug sensitivity score of Cn1nc(-c2cccc(F)c2)n(C)c1=S
0

# lookup: drug sensitivity score of NC(=O)c1ncn([C@@H]2O[C@H](CO)[C@@H](O)[C@H]2O)n1
0

# lookup: drug sensitivity score of CCCOc1ccc2[nH]cc(C3=CCNCC3)c2n1
0

# lookup: drug sensitivity score of CC(C)NCC(O)c1ccc([N+](=O)[O-])cc1 (stereo not drawn)
0

# lookup: drug sensitivity score of CCn1ccnc1CC1COc2ccccc2O1 (stereo not drawn)
0

# lookup: drug sensitivity score of CCOC(=O)C1=C(C)NC(C)=C(C(=O)OC)[C@@H]1c1cccc([N+](=O)[O-])c1 (racemic)
0

# lookup: drug sensitivity score of Cc1cccc(C)c1NC(=O)CN1CCCCCC1 [pincainide]
0

# lookup: drug sensitivity score of CCN(CC)C(=O)N[C@H]1C[C@@H]2c3cccc4[nH]cc(c34)C[C@H]2N(C)C1 [terguride]
0

# lookup: drug sensitivity score of Nc1nc(N)c2nc(-c3cccc(O)c3)cnc2n1
3.2

# lookup: drug sensitivity score of NCCNS(=O)(=O)c1ccc(Cl)c2ccncc12
0

# lookup: drug sensitivity score of C[C@H](Nc1ncnc2[nH]cnc12)c1nc2ccc(F)cc2c(=O)n1-c1ccccc1
0

# lookup: drug sensitivity score of CCN(CC)CCNC(=O)c1c(C)[nH]c(/C=C2\C(=O)Nc3ccc(F)cc32)c1C
4

# lookup: drug sensitivity score of Cc1ccccc1NC(=N)Nc1ccccc1C
0

# lookup: drug sensitivity score of Cc1c(C)c2c(c(C)c1OC(=O)CCC(=O)OCCO)CC[C@@](C)(CCC[C@H](C)CCC[C@H](C)CCCC(C)C)O2
1.3

# lookup: drug sensitivity score of Cc1cc(Oc2ccc3nc(COc4ccc(CC5SC(=O)NC5=O)cc4)n(C)c3c2)cc(C)c1N (stereo not drawn)
0

# lookup: drug sensitivity score of CC(C)(C)NC[C@H](O)COc1cccc2c1CCCC2=O
0

# lookup: drug sensitivity score of O=S(=O)(O)c1ccc(-c2c3nc(c(-c4ccc(S(=O)(=O)O)cc4)c4ccc([nH]4)c(-c4ccc(S(=O)(=O)O)cc4)c4nc(c(-c5ccc(S(=O)(=O)O)cc5)c5ccc2[nH]5)C=C4)C=C3)cc1
0

# lookup: drug sensitivity score of C=CCN1CCN(c2nc3ccccc3nc2C#N)CC1
0
